# studySystem: cloned human dopamine D3 receptors (Homo sapiens, UniProt P35462)
# Construct: expressed in transfected cells; membrane homogenate
# Sequence (P35462 whole entry): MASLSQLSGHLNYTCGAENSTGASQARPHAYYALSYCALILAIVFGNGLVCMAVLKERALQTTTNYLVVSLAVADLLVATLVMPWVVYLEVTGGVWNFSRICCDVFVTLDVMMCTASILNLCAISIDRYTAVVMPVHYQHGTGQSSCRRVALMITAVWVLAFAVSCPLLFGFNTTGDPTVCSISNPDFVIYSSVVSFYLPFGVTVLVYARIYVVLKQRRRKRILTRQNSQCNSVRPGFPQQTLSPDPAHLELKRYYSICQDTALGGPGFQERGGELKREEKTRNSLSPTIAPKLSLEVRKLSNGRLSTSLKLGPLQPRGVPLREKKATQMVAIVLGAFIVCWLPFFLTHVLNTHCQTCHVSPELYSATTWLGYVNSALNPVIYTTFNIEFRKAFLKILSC
# methodDescription: [N-Methyl-3H]Spiroperidol binding to cloned human dopamine D3 receptors
# assayContext: read-out: D3 Ki
Overview of reported pKi across a group of compounds:
Just so you know, pKi here is -log10 of the concentration in molar units; reply with that number alone.

O=C(C1CC1CN1CCC(c2noc3ccsc23)CC1)N1CCN(Cc2ccc(F)cc2)CC1 (racemic) [compound 832164]; 8.18
C[C@H]1CC[C@H](NC(=O)[C@@H]2C[C@H]2CN2CCN(c3nc4cccc5c4n3CCC5)CC2)CC1 [compound 833699]; 8.14

Proceed to the following item.
Req: Find the measured pKi of CCC1CCC(NC(=O)C2CC2CN2CCN(c3nn(-c4ccc(C(F)(F)F)cc4)c4ccccc34)CC2)CC1 (racemic) [compound 830046] with cloned human dopamine D3 receptors (Homo sapiens, UniProt P35462) as test system.
Resp: 7.78
